molecular target: T1, recombinant gp120 of HIV-1 strain IIIb (HIV-1 strain IIIb, UniProt P04578 33-511); experiment: SPR BIAcore, gp120 on chip;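 further: fab fragments flowed at 0.5 to 10 ug/ml over immobilized gp120, resonance units tracked during association and dissociation, equilibrium constants derived from the rate constants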
T1 construct: domain: gp120; also called IIIb-derived gp120; gp 120 (IIIB strain)
Collected Fold Increase of Mutant Kd Compared to MT4 Kd values appear next to each entry.
Your answer is read as fold, so omit the unit and give the number.

Below are worked cases with known answers.
{"columns": ["binder", "measureUnit", "measuredValue"],
 "data": [
  ["composite Fab H101/L42-16 (Fab, V domains shown) VH: LEQSGAEVKKPGASVKVSCQASGYRFSHFTVHWVRQAPGQRFEWHGWINPYNGNKEFSAKFQDRVTFTADTSANTAYMELRSLRSADTAVYYCARVGEWGWHQRRYDNYYMDVWGKGTTVIVSS VL: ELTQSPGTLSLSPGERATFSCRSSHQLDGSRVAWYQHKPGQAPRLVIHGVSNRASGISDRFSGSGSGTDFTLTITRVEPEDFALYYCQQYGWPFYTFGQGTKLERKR", "fold", 36.6],
  ["composite Fab H33/LH-11 (Fab, V domains shown) VH: LEQSGAEVKKPGASVKVSCQASGYRFSHFTLHWVRQAPGQRFEWHGWINPYNGNKEFSAKFQDRVTFTADTSANTAYMELRSLRSADTAVYYCARVGEWGWEMFRYDNYYMDVWGKGTTVIVSS VL: ELTQSPGTLSLSPGERATFSCRSSHQLDGSRVAWYQHKPGQAPRLVIHGVSNRASGISDRFSGSGSGTDFTLTITRVEPEDFALYYCQTYGRGHYTFGQGTKLERKR", "fold", 85.4],
  ["composite Fab H101/4L-1 (Fab, V domains shown) VH: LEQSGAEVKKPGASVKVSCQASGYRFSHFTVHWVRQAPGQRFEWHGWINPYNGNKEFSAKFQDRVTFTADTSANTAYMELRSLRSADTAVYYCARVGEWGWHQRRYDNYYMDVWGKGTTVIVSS VL: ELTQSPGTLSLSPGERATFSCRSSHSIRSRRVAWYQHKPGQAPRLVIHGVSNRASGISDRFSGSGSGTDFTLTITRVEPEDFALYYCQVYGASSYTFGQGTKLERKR", "fold", 16.6],
  ["composite Fab H33/L42-17 (Fab, V domains shown) VH: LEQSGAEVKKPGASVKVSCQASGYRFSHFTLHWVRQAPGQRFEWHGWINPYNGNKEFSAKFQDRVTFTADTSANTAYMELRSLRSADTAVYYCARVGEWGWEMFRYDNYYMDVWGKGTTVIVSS VL: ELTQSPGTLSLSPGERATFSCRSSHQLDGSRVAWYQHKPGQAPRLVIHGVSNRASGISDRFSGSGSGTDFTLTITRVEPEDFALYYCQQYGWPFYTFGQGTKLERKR", "fold", 34.4],
  ["composite Fab H103/L42-4 (Fab, V domains shown) VH: LEQSGAEVKKPGASVKVSCQASGYRFSHFTLHWVRQAPGQRFEWHGWINPYNGNKEFSAKFQDRVTFTADTSANTAYMELRSLRSADTAVYYCARVGEWGWHQRRYDNYYMDVWGKGTTVIVSS VL: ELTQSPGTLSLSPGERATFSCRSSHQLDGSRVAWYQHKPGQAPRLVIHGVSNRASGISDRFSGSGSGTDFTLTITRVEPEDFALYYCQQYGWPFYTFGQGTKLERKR", "fold", 55.8],
  ["composite Fab 4H/L42-1 (Fab, V domains shown) VH: LEQSGAEVKKPGASVKVSCQASGYRFSNFVIHWVRQAPGQRFEWMGWINPYNGNKEFSAKFQDRVTFTADTSANTAYMELRSLRSADTAVYYCARVGPYSWDDSPQDNYYMDVWGKGTTVIVSS VL: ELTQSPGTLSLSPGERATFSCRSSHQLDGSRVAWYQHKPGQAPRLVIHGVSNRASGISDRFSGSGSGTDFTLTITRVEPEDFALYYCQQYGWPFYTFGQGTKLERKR", "fold", 3.02],
  ["composite Fab H31/L42-1 (Fab, V domains shown, also called Fab of plasmid pPho-H31/L42-1 (ATCC 69691)) VH: LEQSGAEVKKPGASVKVSCQASGYRFSHFTVHWVRQAPGQRFEWHGWINPYNGNKEFSAKFQDRVTFTADTSANTAYMELRSLRSADTAVYYCARVGEWGWEMFRYDNYYMDVWGKGTTVIVSS VL: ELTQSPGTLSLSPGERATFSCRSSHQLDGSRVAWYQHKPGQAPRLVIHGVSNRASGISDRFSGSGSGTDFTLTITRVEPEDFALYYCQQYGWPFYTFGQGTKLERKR", "fold", 2430],
  ["composite Fab H31/4L-14 (Fab, V domains shown) VH: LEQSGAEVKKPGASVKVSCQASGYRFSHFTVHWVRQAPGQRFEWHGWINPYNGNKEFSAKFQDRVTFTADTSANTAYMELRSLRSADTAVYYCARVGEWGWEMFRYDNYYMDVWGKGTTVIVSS VL: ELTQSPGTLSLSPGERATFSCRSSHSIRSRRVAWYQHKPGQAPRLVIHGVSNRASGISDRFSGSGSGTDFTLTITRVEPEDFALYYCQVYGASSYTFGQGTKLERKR", "fold", 284]
]}

Tell me the measured Fold Increase of Mutant Kd Compared to MT4 Kd of composite Fab H101/L42-1 (Fab, V domains shown) VH: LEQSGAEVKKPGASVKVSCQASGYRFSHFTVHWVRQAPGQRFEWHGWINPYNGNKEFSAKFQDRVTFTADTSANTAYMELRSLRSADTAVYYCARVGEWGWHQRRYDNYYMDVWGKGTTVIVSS VL: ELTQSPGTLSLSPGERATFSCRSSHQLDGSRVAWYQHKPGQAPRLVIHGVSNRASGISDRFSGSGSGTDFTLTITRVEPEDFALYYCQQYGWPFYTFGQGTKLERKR , please. 48.5
